For each of the compounds below, state its MEC.
ASSAYED SYSTEM: recombinant guanylate cyclase reporter cell line (Rattus norvegicus, UniProt P19686+P20595)
Construct: expressed in transfected cells
Sequence (P20595 whole entry): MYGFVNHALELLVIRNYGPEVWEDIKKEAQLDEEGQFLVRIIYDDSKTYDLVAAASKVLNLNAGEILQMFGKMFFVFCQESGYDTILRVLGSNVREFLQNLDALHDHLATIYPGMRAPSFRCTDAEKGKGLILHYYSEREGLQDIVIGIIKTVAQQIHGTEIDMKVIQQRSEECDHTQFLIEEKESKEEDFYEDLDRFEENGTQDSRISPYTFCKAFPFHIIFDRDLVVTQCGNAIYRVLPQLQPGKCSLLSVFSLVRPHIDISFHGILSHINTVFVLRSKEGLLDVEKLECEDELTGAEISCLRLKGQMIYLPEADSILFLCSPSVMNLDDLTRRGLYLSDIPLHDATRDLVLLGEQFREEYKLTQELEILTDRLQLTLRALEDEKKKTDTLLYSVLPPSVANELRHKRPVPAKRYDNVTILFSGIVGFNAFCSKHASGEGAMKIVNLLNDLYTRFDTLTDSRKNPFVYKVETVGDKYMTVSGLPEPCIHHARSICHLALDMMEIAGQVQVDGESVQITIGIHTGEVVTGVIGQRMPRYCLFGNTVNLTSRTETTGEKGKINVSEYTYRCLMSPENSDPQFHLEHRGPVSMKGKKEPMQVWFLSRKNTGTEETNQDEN
Sequence (P19686 whole entry): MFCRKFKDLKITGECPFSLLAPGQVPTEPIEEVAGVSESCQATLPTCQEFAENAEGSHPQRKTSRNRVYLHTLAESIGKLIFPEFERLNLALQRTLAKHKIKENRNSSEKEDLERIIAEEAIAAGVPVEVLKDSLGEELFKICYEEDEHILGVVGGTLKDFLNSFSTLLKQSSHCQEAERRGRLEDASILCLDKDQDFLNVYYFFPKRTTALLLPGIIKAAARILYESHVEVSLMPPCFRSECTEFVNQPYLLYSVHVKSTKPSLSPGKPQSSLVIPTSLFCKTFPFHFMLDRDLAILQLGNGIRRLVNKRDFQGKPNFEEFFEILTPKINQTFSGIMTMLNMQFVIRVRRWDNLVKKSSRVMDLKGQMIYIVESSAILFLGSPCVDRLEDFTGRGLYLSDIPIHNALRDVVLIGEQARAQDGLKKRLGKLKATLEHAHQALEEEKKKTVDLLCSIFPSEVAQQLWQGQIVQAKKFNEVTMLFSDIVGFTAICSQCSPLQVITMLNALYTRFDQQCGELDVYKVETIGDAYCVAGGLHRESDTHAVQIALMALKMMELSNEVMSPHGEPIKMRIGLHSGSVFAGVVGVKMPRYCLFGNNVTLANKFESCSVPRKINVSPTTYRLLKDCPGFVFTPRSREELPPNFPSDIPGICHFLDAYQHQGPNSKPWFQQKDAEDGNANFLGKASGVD
METHOD SUMMARY: B-2. Action on recombinant guanylate cyclase reporter cell line
Format: cell-based
CONDITIONS: MEC = minimal effective concentration; in some cases mean values from individual determinations
Answers are plain numbers, in µM.

Known MEC results, listed for orientation:
COMPOUND	READOUT NUMBER
Cc1cc(OCc2c(F)cccc2F)c2nc(C)c(C(=O)NCC(C)(N)CF)n2c1 (single isomer, unassigned; enantiomer b) [Example 284]	0.1
Cc1nc2c(OCc3c(F)cccc3F)cccn2c1C(=O)NCC1(N)CCCC1	0.30
Cc1nc2c(OCC3CCCCC3)cccn2c1C(=O)NC(CN)c1ccc(F)c(F)c1 (racemic) [Example 46]	1.00

// batch mode: one MEC value per listed entry
1. COc1cccc(C(N)CNC(=O)c2c(C)nc3c(OCc4c(F)cccc4F)cc(C)cn23)c1 (racemic)
2. Cc1cc(OCc2c(F)cccc2F)c2nc(C)c(C(=O)NCC(N)c3ccc4ncccc4c3)n2c1 (racemic)
3. Cc1nc2c(OCc3c(F)cccc3F)cccn2c1C(=O)NC(C)[C@H](C)N (stereo partly drawn) [Example 120]
4. Cc1nc2c(OCc3c(F)cccc3F)cccn2c1C(=O)NCC(C)(N)CC(C)C (single isomer, unassigned) [Example 203]
5. Cc1nc2c(OCc3c(F)cccc3F)cccn2c1C(=O)NCCN(C)C

[out]
[1.00, 3.00, 0.30, 0.10, 2.00]

====

ASSAYED SYSTEM: recombinant guanylate cyclase reporter cell line (Rattus norvegicus, UniProt P19686+P20595)
Construct: expressed in transfected cells
METHOD SUMMARY: B-2. Action on recombinant guanylate cyclase reporter cell line
Assay type: cell-based
CONDITIONS: MEC = minimal effective concentration; in some cases mean values from individual determinations
Give MEC for every item shown.
Numbers only, in µM.

COMPOUND	UNIT NAME	MEC
CCCC(C)(N)CNC(=O)c1c(C)nc2c(OC(C)c3c(F)cccc3F)cc(C)cn12 (centres unmarked)	µM	1.00
CCCC(C)(N)CNC(=O)c1c(C)nc2c(OCc3c(F)cccc3F)cc(C(F)F)cn12 (single isomer, unassigned; enantiomer b) [Example 289]	µM	0.3
Cc1nc2c(OCc3c(F)cccc3F)cccn2c1C(=O)NC(C)[C@H](C)N (single isomer, unassigned) [Example 175]	µM	1.00
Cc1nc2c(OCc3c(F)cccc3F)cc(Cl)cn2c1C(=O)NCC(C)(C)N	µM	0.30
Cc1nc2c(OCc3c(F)cccc3F)cccn2c1C(=O)NC1CCN(Cc2ccccc2)C1 (racemic)	µM	1.00
CCC(C)(N)CNC(=O)c1c(C)nc2c(OCc3c(F)cccc3F)cc(OC)cn12 (single isomer, unassigned; enantiomer a)	µM	0.3
Cc1nc2c(OCc3c(F)cccc3F)cc(Cl)cn2c1C(=O)NCCC1(N)CCCCC1	µM	0.30
Cc1nc2c(OCc3c(F)cccc3F)cccn2c1C(=O)NCC(N)CC(F)(F)F (single isomer, unassigned) [Example 127]	µM	1.00
Cc1nc2c(OCc3c(F)cccc3F)cc(Cl)cn2c1C(=O)NCC(C)(N)C(F)(F)F (racemic) [Example 236]	µM	0.30
Cc1cc(OCc2c(F)cccc2F)c2nc(C)c(C(=O)NC3CC(N)C3)n2c1 (mixture of isomers)	µM	1.00

Provide reported MEC for each item, in the same order as listed.
1. Cc1cc(OCc2c(F)cccc2F)c2nc(C)c(C(=O)NCC(C)(N)CC(C)C)n2c1 (single isomer, unassigned) [Example 219]
2. Cc1nc2c(OCc3c(F)cccc3F)cccn2c1C(=O)NC1CNCc2ccccc21 (single isomer, unassigned; ent-8) [Example 110]
3. Cc1cc(OCc2c(F)cccc2F)c2nc(C)c(C(=O)NCC(N)c3ccc(C)o3)n2c1 (racemic)
4. Cc1cc(OCc2c(F)cccc2F)c2nc(C)c(C(=O)NC(CN)c3cccc(Br)c3)n2c1 (racemic)

[out]
[0.30, 0.30, 0.30, 0.30]

====

ASSAYED SYSTEM: recombinant guanylate cyclase reporter cell line (Rattus norvegicus, UniProt P19686+P20595)
Construct: expressed in transfected cells
METHOD SUMMARY: B-2. Action on recombinant guanylate cyclase reporter cell line
Type: cell-based
CONDITIONS: MEC = minimal effective concentration; in some cases mean values from individual determinations
Experimental: B-2. Action on Recombinant Guanylate Cyclase Reporter Cell Line The cellular action of the compounds according to the invention is determined on a recombinant guanylate cyclase reporter cell line, as described in F. Wunder et al., Anal. Biochem. 339, 104-112 (2005). Representative MEC values (MEC=minimal effective concentration) for the compounds according to the invention are shown in the following table (in some cases as mean values obtained from individual determinations): […]
Can you tell me MEC for the items I'm about to list?
Give bare numbers, in µM.

// known answers, use as guide
COMPOUND	MEC / µM
Cc1nc2c(OCc3c(F)cccc3F)cccn2c1C(=O)NCC(C)(N)CCOCc1ccccc1 (racemic) [Example 264]	0.03
Cc1nc2c(OCc3c(F)cccc3F)cc(Cl)cn2c1C(=O)NCCN1CCN(C(C)C)CC1	1.00
Cc1nc2c(OCc3c(F)cccc3F)cccn2c1C(=O)NC(CN)CC(F)(F)F (racemic) [Example 2]	0.65

// for each compound in input: emit MEC
1. Cc1cc(OCc2c(F)cccc2F)c2nc(C)c(C(=O)NCC(N)c3csc(C)n3)n2c1 (racemic) [Example 415, Triformate]
2. Cc1nc2c(OCc3c(F)cccc3F)cccn2c1C(=O)NCC(C)N1CCOCC1 (single isomer, unassigned; ent-8) [Example 180]
3. CCCC(C)(N)CNC(=O)c1c(C)nc2c(OCc3c(F)cccc3F)cc(N3CCOCC3)cn12 (single isomer, unassigned; enantiomer b)
4. Cc1cc(OCc2c(F)cccc2F)c2nc(C)c(C(=O)NCC(N)CC(F)(F)F)n2c1 (single isomer, unassigned) [Example 129]

[out]
5.5
1.00
0.65
0.10

====

ASSAYED SYSTEM: recombinant guanylate cyclase reporter cell line (Rattus norvegicus, UniProt P19686+P20595)
Construct: expressed in transfected cells
METHOD SUMMARY: B-2. Action on recombinant guanylate cyclase reporter cell line
Assay type: cell-based
CONDITIONS: MEC = minimal effective concentration; in some cases mean values from individual determinations
Structures can show the parent of a compound that is named as a salt.
ATTRIBUTE MEASURED: MEC
Please don't drop the unit; write it after the number.

Please give MEC for each item listed below.
1. Cc1nc2c(OCc3c(F)cccc3F)cccn2c1C(=O)NC(CN)CC(C(F)(F)F)C(F)(F)F (racemic) [Example 5, trifluoroacetate]
2. Cc1nc2c(OCc3ccccc3F)cccn2c1C(=O)NC(CN)c1ccc(F)c(F)c1 (stereo not shown) [Example 98]
3. Cc1cc(OCc2c(F)cccc2F)c2nc(C)c(C(=O)NC3CNc4ccccc4C3)n2c1 (racemic) [Example 76]
4. Cc1nc2c(OCc3c(F)cccc3F)cccn2c1C(=O)NCCN1CCC(F)(F)C1 [Example 143]

[out]
["1.00 µM", "1.00 µM", "0.30 µM", "0.30 µM"]

====

ASSAYED SYSTEM: recombinant guanylate cyclase reporter cell line (Rattus norvegicus, UniProt P19686+P20595)
Construct: expressed in transfected cells
METHOD SUMMARY: B-2. Action on recombinant guanylate cyclase reporter cell line
Type: cell-based
CONDITIONS: MEC = minimal effective concentration; in some cases mean values from individual determinations
Where a name gives a salt, the structure may show the parent alone.
Kindly supply the reported MEC values for the records listed here.

Some molecules with known MEC results, for comparison:
MOLECULE	MEC
Cc1nc2c(OCc3c(F)cccc3F)cccn2c1C(=O)NCC(C)N1CCOCC1 (racemic) [Example 132]	1.00 µM
Cc1cc(OCc2c(F)cccc2F)c2nc(C)c(C(=O)NC[C@@H]3CCCN3)n2c1	1.00 µM
Cc1cc(OCc2c(F)cccc2F)c2nc(C)c(C(=O)NCC(C)(N)CF)n2c1 (racemic) [Example 282, Formate]	0.3 µM

Report MEC for each item below.
1. CCCC(C)(N)CNC(=O)c1c(C)nc2c(OCc3cccc(F)c3)cc(C)cn12 (racemic)
2. Cc1nc2c(OCc3c(F)cccc3F)cc(Cl)cn2c1C(=O)NCCN(CC(F)F)C1CC1
3. Cc1nc2c(OCc3c(F)cccc3F)cccn2c1C(=O)NCCN(CC(F)F)C1CC1
4. Cc1cc(OCc2c(F)cccc2F)c2nc(C)c(C(=O)NCC(C)(N)CC(C)C)n2c1 (single isomer, unassigned) [Example 220]

[out]
["1.00 µM", "0.10 µM", "1.00 µM", "0.10 µM"]

[in] Quick one: MEC of Cc1cc(OCc2c(F)cccc2F)c2nc(C)c(C(=O)NC(CN)c3ccc4ncccc4c3)n2c1 (racemic) ?
[out] 1.00 µM
